pIC50: −log10 of the molar value.
Entries below carry reported pIC50 on carbonic anhydrase II (Homo sapiens).
reported property: pIC50

[[record]]
compound_smiles = "C=CCc1cc(/C=C2/SC(Nc3ccc(S(N)(=O)=O)cc3)=NC2=O)c(O)c(OC)c1"
reported_property = "pIC50"
readout_value = 5.41

[[record]]
compound_smiles = "COc1cc(/C=C2/SC(Nc3ccc(S(N)(=O)=O)cc3)=NC2=O)ccc1O"
reported_property = "pIC50"
readout_value = 5.66

[[record]]
compound_smiles = "NS(=O)(=O)c1ccc(NC2=NC(=O)/C(=C\\c3ccc([N+](=O)[O-])cc3)S2)cc1"
reported_property = "pIC50"
readout_value = 5.81


====

Test: MTT cytotoxicity assay, normal breast cell line
Format: cell-based, human
Conditions: human, MCF 10A normal breast cells
reported property: IC50 at 48 h (µM)

[[record]]
compound_smiles = "NS(=O)(=O)c1ccc(NC2=NC(=O)/C(=C\\c3ccc([N+](=O)[O-])cc3)S2)cc1"
reported_property = "IC50 at 48 h"
readout_value = 47.9

[[record]]
compound_smiles = "COc1cc(/C=C2/SC(Nc3ccc(S(N)(=O)=O)cc3)=NC2=O)cc(OC)c1OC"
reported_property = "IC50 at 48 h"
readout_value = 14.2

[[record]]
compound_smiles = "CN(C)c1ccc(/C=C2/SC(Nc3ccc(S(N)(=O)=O)cc3)=NC2=O)cc1"
reported_property = "IC50 at 48 h"
readout_value = 13.1

[[record]]
compound_smiles = "C=CCc1cc(/C=C2/SC(Nc3ccc(S(N)(=O)=O)cc3)=NC2=O)c(O)c(OC)c1"
reported_property = "IC50 at 48 h"
readout_value = 19.4

[[record]]
compound_smiles = "NS(=O)(=O)c1ccc(NC2=NC(=O)/C(=C\\c3ccc(O)cc3)S2)cc1"
reported_property = "IC50 at 48 h"
readout_value = 17.8

[[record]]
compound_smiles = "NS(=O)(=O)c1ccc(NC2=NC(=O)/C(=C\\c3ccccc3)S2)cc1"
reported_property = "IC50 at 48 h"
readout_value = 24.2

[[record]]
compound_smiles = "NS(=O)(=O)c1ccc(NC2=NC(=O)/C(=C\\c3ccc(C(=O)O)cc3)S2)cc1"
reported_property = "IC50 at 48 h"
readout_value = 30.3

[[record]]
compound_smiles = "NS(=O)(=O)c1ccc(NC2=NC(=O)/C(=C\\c3ccc(Cl)cc3)S2)cc1"
reported_property = "IC50 at 48 h"
readout_value = 22.9

[[record]]
compound_smiles = "COc1cc(/C=C2/SC(Nc3ccc(S(N)(=O)=O)cc3)=NC2=O)ccc1O"
reported_property = "IC50 at 48 h"
readout_value = 26.1

[[record]]
compound_smiles = "COc1ccc(/C=C2/SC(Nc3ccc(S(N)(=O)=O)cc3)=NC2=O)cc1"
reported_property = "IC50 at 48 h"
readout_value = 22.7


====

System: K. pneumonia
Experiment: Anti-biofilm activity
Type: cell-based
Settings: 50 μg mL^−1
reported property: Biofilm inhibition ratio% K. pneumonia (%)

[[record]]
compound_smiles = "C=CCc1cc(/C=C2/SC(Nc3ccc(S(N)(=O)=O)cc3)=NC2=O)c(O)c(OC)c1"
reported_property = "Biofilm inhibition ratio% K. pneumonia"
unit_label = "%"
readout_value = 18.60

[[record]]
compound_smiles = "COc1cc(/C=C2/SC(Nc3ccc(S(N)(=O)=O)cc3)=NC2=O)ccc1O"
reported_property = "Biofilm inhibition ratio% K. pneumonia"
unit_label = "%"
readout_value = 77.52

[[record]]
compound_smiles = "NS(=O)(=O)c1ccc(NC2=NC(=O)/C(=C\\c3ccc([N+](=O)[O-])cc3)S2)cc1"
reported_property = "Biofilm inhibition ratio% K. pneumonia"
unit_label = "%"
readout_value = 79.46

[[record]]
compound_smiles = "COc1cc(/C=C2/SC(Nc3ccc(S(N)(=O)=O)cc3)=NC2=O)cc(OC)c1OC"
reported_property = "Biofilm inhibition ratio% K. pneumonia"
unit_label = "%"
readout_value = 5.43

[[record]]
compound_smiles = "NS(=O)(=O)c1ccc(NC2=NC(=O)/C(=C\\c3ccc(O)cc3)S2)cc1"
reported_property = "Biofilm inhibition ratio% K. pneumonia"
unit_label = "%"
readout_value = 78.29

[[record]]
compound_smiles = "NS(=O)(=O)c1ccc(NC2=NC(=O)/C(=C\\c3ccc(C(=O)O)cc3)S2)cc1"
reported_property = "Biofilm inhibition ratio% K. pneumonia"
unit_label = "%"
readout_value = 10.08

